tgt: urease in intact E. coli (pGEM::ureOP) cells (Helicobacter pylori)
Construct: plasmid pGEM::ureOP, which encodes the entire urease gene cluster, was used to produce recombinant H. pylori urease; expressed in transfected cells; host or cells: E. coli Rosetta2 (DE3) transformed with pGEM::ureOP
Sequence (B5Z674 whole entry, looked up): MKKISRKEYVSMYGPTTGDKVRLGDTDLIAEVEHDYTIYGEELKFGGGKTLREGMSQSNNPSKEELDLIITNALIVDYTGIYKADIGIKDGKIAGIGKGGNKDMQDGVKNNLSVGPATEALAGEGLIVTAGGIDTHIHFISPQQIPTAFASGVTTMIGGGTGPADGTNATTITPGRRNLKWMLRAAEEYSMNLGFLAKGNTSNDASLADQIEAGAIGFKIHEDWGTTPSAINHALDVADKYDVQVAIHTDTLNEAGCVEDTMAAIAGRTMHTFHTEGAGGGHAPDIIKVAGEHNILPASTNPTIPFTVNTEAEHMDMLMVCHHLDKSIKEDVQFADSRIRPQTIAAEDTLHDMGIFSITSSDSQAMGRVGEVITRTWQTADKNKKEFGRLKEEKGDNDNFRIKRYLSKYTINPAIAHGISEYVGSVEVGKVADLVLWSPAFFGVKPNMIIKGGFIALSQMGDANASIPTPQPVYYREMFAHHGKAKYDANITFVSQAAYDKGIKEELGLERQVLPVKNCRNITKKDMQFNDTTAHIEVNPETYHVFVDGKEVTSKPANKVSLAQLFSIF
assay.comment: Urease inhibition in whole cells of E. coli + pGEM::ureOP
Format: cell-based
condition.description: without preincubation of cells with inhibitory compounds; 30-min reactions, 5 mM urea; IC50 exceeding 2 mM considered not active; read-out: IC500
measured.metric: IC50

* CC(=O)NO [Compound 24, acetohydroxamic acid, reference compound] | 153 µM

====

Property: pIC50; scope: individual compounds
tgt: urease in intact H. pylori J99 (Helicobacter pylori)
Construct: In the intact H. pylori J99 cells, the urease susceptibility profile was similar to that of E. coli (pGEM::ureOP); endogenous in cells
assay.comment: Urease inhibition in whole cells of H. pylori J99
Assay type: cell-based
condition.description: cells grown without urea; 2 h of preincubation with inhibitors in PBS under microaerobic conditions; read-out: IC502h PBS
pIC50: −log10 of the molar value.
measured.metric: pIC50

* CN(C)CP(C)(=O)O [Compound 3] | 3.12
* CCCCCNCP(=O)(O)CN [Compound 12] | 3.04
* CCCCCCCNCP(=O)(O)CN [Compound 14] | 3.17
* CNCP(=O)(O)O [Compound 1, N-methylaminomethylphosphonic acid] | 3.22
* CNCP(C)(=O)O [Compound 2] | 3.07
* CNCP(=O)(O)CNC [Compound 21, bis(N-methylaminomethyl)phosphinic acid] | 3.88

====

tgt: urease in intact H. pylori J99 (Helicobacter pylori)
Construct: In the intact H. pylori J99 cells, the urease susceptibility profile was similar to that of E. coli (pGEM::ureOP); endogenous in cells
assay.comment: Urease inhibition in whole cells of H. pylori J99
Format: cell-based
condition.description: cells grown without urea; without preincubation; read-out: IC500
measured.metric: IC50 (µM)

• CCCCCNCP(=O)(O)CN [Compound 12] = 872
• CNCP(=O)(O)CN [Compound 7] = 327
• CCCCNCP(=O)(O)CN [Compound 11] = 881
• CCCCCCCCNCP(=O)(O)CN [Compound 15] = 1260
• CCCCCCNCP(=O)(O)CN [Compound 13] = 597
• CNCP(=O)(O)CNC [Compound 21, bis(N-methylaminomethyl)phosphinic acid] = 581
• CN(C)CP(C)(=O)O [Compound 3] = 530
• CCCNCP(=O)(O)CN [Compound 9] = 772
• CNCP(C)(=O)O [Compound 2] = 480
• CCCCCCCNCP(=O)(O)CN [Compound 14] = 743
• CNCP(=O)(O)O [Compound 1, N-methylaminomethylphosphonic acid] = 316
• CC(C)CNCP(=O)(O)CN [Compound 10] = 913
• CNCP(=O)(O)CO [Compound 4] = 341
• NCP(=O)(O)CN [Compound 6, Bis(aminomethyl)phosphinic acid] = 1300

====

tgt: purified recombinant urease from H. pylori (Helicobacter pylori)
Construct: plasmid pGEM::ureOP, which encodes the entire urease gene cluster, was used to produce recombinant H. pylori urease; made in house; host or cells: E. coli Rosetta2 (DE3) + pGEM::ureOP
Sequence (B5Z674 whole entry, looked up): as above
assay.comment: Inhibition of purified recombinant H. pylori urease (phenol-hypochlorite, Lineweaver-Burk)
Assay type: biochemical
condition.description: 50 mM phosphate buffer pH 7.5, 37°C, 0.1–2.5 mM urea; competitive reversible inhibition; listed as acetohydroxamic acid; read-out: Ki
measured.metric: Ki (µM)

* CC(=O)NO [Compound 24, acetohydroxamic acid, reference compound] | 23

Source: paper PMC5550016
